Biological target: human HER3 endogenously expressed on human cancer cells (SK-Br-3, BT-474, MCF7) (human, UniProt P21860 20-1342)
Experiment: cell-based or functional assay
Consider the following binders; for each one, report its SK-Br-3 pHER3 % inhibition.
One number for each entry, in %.

Worked examples, 4 binders total:
{"binder": "MOR13664 (antibody, human IgG1, lambda, V domains shown) VH: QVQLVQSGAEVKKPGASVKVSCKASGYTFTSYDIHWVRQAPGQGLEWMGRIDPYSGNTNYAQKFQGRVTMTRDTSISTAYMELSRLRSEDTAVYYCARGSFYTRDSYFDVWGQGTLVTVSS VL: DIALTQPASVSGSPGQSITISCTGTSSDVGTYNQVSWYQQHPGKAPKLMIYGVSKRPSGVSNRFSGSKSGNTASLTISGLQAEDEADYYCSAYDASTQVVFGGGTKLTVLG", "SK-Br-3 pHER3 % inhibition (%)": 57}
{"binder": "MOR13658 (antibody, human IgG1, lambda, V domains shown, Tested as IgG) VH: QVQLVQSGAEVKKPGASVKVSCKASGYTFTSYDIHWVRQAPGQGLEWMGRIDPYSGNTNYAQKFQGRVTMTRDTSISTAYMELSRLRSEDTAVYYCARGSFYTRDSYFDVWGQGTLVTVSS VL: DIALTQPASVSGSPGQSITISCTGTSSDVGTYNQVSWYQQHPGKAPKLMIYGVSKRPSGVSNRFSGSKSGNTASLTISGLQAEDEADYYCASADHSYHTVFGGGTKLTVLG", "SK-Br-3 pHER3 % inhibition (%)": 74}
{"binder": "MOR13666 (antibody, human IgG1, lambda, V domains shown, Tested as IgG) VH: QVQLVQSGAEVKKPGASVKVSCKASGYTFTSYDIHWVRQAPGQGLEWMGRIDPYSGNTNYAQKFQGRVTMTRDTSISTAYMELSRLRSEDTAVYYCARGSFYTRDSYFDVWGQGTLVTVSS VL: DIALTQPASVSGSPGQSITISCTGTSSDVGTYNQVSWYQQHPGKAPKLMIYGVSKRPSGVSNRFSGSKSGNTASLTISGLQAEDEADYYCSTTTYSFHMVFGGGTKLTVLG", "SK-Br-3 pHER3 % inhibition (%)": 69}
{"binder": "MOR12603 (antibody, human IgG1, kappa, V domains shown, Tested as IgG) VH: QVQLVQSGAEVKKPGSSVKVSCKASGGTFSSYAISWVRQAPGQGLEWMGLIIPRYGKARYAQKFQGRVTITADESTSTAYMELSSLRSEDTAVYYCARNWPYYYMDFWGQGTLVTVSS VL: DIVLTQSPATLSLSPGERATLSCRASQNIVFNLAWYQQKPGQAPRLLIYDASNRATGVPARFSGSGSGTDFTLTISSLEPEDFAVYYCQQTKNRPPTFGQGTKVEIKR", "SK-Br-3 pHER3 % inhibition (%)": 74}

Shift focus to the following entry.
Task item: Report SK-Br-3 pHER3 % inhibition for MOR13655 (antibody, human IgG1, lambda, V domains shown, Tested as IgG) VH: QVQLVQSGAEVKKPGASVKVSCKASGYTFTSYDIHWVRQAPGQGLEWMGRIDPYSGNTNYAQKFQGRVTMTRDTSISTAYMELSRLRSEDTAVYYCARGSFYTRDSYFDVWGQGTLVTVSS VL: DIALTQPASVSGSPGQSITISCTGTSSDVGTYNQVSWYQQHPGKAPKLMIYGVSKRPSGVSNRFSGSKSGNTASLTISGLQAEDEADYYCSSATQKPDVTVFGGGTKLTVLG please.
Reply: 69
